Test system: SARS-CoV-2
Assay: Virus yield reduction assay, SARS-CoV-2 (virus titer by RT-qPCR)
Type: cell-based
Details: Severe acute respiratory syndrome coronavirus 2, Caco-2, 24 h, Caco-2 cells, 0.2% BSA, MOI 0.01, 24 h; read-out: EC50 value against SARS-CoV-2 (FI)
pEC50: −log10 of the molar value.

compound-structure | pEC50
O=C(O)c1ccc(F)c(F)c1Nc1ccc(I)cc1Cl | 4.64

----------
Test system: MEK1/2 (ERK1/2 phosphorylation)
Assay: IC50 determination in virus-infected cells, pERK/ERK ratio by WES
Format: cell-based, Homo sapiens
Conditions: Homo sapiens, Caco-2, 24 h, read-out: IC50 value (ERK phosphorylation) in infected cells, SARS-CoV-2-infected Caco-2 cells, MOI 0.01, 0.2% BSA, 24 h; bottom plateau constrained to 0

compound | IC50
O=C(O)c1ccc(F)c(F)c1Nc1ccc(I)cc1Cl [zapnometinib] | 5.65 µM

----------
Test system: MEK1/2 (ERK1/2 phosphorylation)
Experiment: IC50 determination in the absence of viral infection, TNF-α-stimulated cells, pERK/ERK ratio by WES
Format: cell-based
Conditions: Homo sapiens, Caco-2, Caco-2 cells, 0% FBS, TNF-α 30 min then 1 h treatment, no virus

compound-structure | IC50
O=C(O)c1ccc(F)c(F)c1Nc1ccc(I)cc1Cl | 40 nM

----------
Test system: Calu-3 cells
Format: cell-based
Conditions: human, 24 h

compound-structure | CC50 [µM]
O=C(O)c1ccc(F)c(F)c1Nc1ccc(I)cc1Cl | 303

----------
System: SARS-CoV-2
Experiment: Virus yield reduction assay, SARS-CoV-2 (virus titer by RT-qPCR)
Format: cell-based
Conditions: Severe acute respiratory syndrome coronavirus 2, summary for Calu-3 and Caco-2 cells, 0.2% BSA; read-out: EC50 values for SARS-CoV-2 in both cell lines

compound-structure | EC50
O=C(O)c1ccc(F)c(F)c1Nc1ccc(I)cc1Cl | ~20 µM

----------
Test system: Caco-2 cells
Type: cell-based
Conditions: human, 24 h

compound-structure | CC50
O=C(O)c1ccc(F)c(F)c1Nc1ccc(I)cc1Cl | 360 µM

----------
System: IAV PR8
Assay: Virus yield reduction assay, IAV PR8 (virus titer by RT-qPCR)
Type: cell-based, Influenza A virus, strain: A/Puerto Rico/8/1934 (H1N1)
Conditions: Calu-3 cells, 0.2% BSA, MOI 0.01, 24 h; read-out: EC50 value against IAV PR8

compound-structure | EC50
O=C(O)c1ccc(F)c(F)c1Nc1ccc(I)cc1Cl | 7.13 µM

----------
Test system: SARS-CoV-2
Experiment: Virus yield reduction assay, SARS-CoV-2 (virus titer by RT-qPCR)
Assay type: cell-based
Conditions: Caco-2 cells, 0.2% BSA, MOI 0.01, 24 h; read-out: EC50 value against SARS-CoV-2 (FI)
outcome-measure: EC50 (µM)

compound-structure | outcome-measure | measurement
O=C(O)c1ccc(F)c(F)c1Nc1ccc(I)cc1Cl | EC50 | 22.9
